Data provenance is patent US8044082B2.

// melting point lookup, one value per entry
Report as a plain number; the unit °C is understood.

# Smiles Representation, Unit Text, Value Reported
measured = [
    ("CC(C)c1cccc(C(C)C)c1NC(=O)CN1C(=O)N(c2ccc(OCc3ccccc3)cc2)C2(CCCCC2)C1=O", "°C", 118),
    ("CC(C)c1cccc(C(C)C)c1NC(=O)CN1C(=O)N(c2ccc(Cl)cc2)C2(CCCC2)C1=O", "°C", 270),
]

Could you tell me which melting point is on file for CC(C)c1cccc(C(C)C)c1NC(=O)CN1C(=O)N(Cc2ccccc2)C2(CCCCC2)C1=O ?
214

Could you tell me which melting point is on file for CCc1cccc(CC)c1NC(=O)CN1C(=O)N(CC(C)C)C2(CCCCC2)C1=O ?
209

Could you tell me which melting point is on file for CC(C)c1cccc(C(C)C)c1NC(=O)CN1C(=O)N(C2CCCC2)C2(CCCCC2)C1=O ?
257

Could you tell me which melting point is on file for Cc1ccc(N2C(=O)N(CC(=O)Nc3c(C(C)C)cccc3C(C)C)C(=O)C23CCCCC3)cc1 ?
234

Could you tell me which melting point is on file for CC(C)CN1C(=O)N(CC(=O)Nc2c(C(C)C)cccc2C(C)C)C(=O)C12CCCCC2 ?
233

Could you tell me which melting point is on file for CC(C)c1cccc(C(C)C)c1NC(=O)CN1C(=O)N(c2ccc(OCc3ccccc3)cc2)C2(CCCC2)C1=O ?
232

Could you tell me which melting point is on file for Cc1ccc(N2C(=O)N(CC(=O)Nc3c(C)cc(C)cc3Br)C(=O)C23CCCCC3)cc1 ?
245

Could you tell me which melting point is on file for CC(C)c1cccc(C(C)C)c1NC(=O)CN1C(=O)N(c2ccccc2)C2(CCCCCC2)C1=O ?
230
